Molecular target: T1, wild-type human PTH/PTHrP receptor (hP1R-WT) (human, UniProt Q03431 27-593)
T1 construct: whole, on cells; HKRK-B28 cells express ~280,000 receptors per cell; also called PTH-1 receptor; PTH-1R
T1 sequence (looked up): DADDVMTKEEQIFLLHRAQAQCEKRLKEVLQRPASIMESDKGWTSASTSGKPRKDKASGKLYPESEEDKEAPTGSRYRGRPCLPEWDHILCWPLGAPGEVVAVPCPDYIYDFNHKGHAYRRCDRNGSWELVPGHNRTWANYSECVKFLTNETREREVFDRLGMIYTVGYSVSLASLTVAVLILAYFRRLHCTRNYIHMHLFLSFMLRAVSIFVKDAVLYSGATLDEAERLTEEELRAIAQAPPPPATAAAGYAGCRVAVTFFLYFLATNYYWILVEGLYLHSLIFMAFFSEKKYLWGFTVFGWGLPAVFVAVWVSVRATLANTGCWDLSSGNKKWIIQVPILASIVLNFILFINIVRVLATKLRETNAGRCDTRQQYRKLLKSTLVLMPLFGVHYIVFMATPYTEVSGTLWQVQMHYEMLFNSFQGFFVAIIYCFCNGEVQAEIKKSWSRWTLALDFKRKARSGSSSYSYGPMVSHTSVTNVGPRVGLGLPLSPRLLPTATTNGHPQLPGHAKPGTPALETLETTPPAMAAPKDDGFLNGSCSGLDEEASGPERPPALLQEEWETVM
Experiment: competition binding, 125I-[M]PTH(1-21) tracer, HKRK-B28 cells, 4 h at 4 C
Square brackets hold non-standard residues; d marks the D form. Ends that are not written are not given here. hArg = N=C(N)NCCCC[C@H](N)C(=O)O; Aib = CC(C)(N)C(=O)O
Quantity measured: pIC50
Give bare numbers, as −log10 of the molar value.

So, AVAEI[Aib]LMHQ[hArg]AKW-NH2 (N-terminus assumed; SMILES CC[C@H](C)[C@H](NC(=O)[C@H](CCC(=O)O)NC(=O)[C@H](C)NC(=O)[C@@H](NC(=O)[C@H](C)N)C(C)C)C(=O)NC(C)(C)C(=O)N[C@@H](CC(C)C)C(=O)N[C@@H](CCSC)C(=O)N[C@@H](Cc1c[nH]cn1)C(=O)N[C@@H](CCC(N)=O)C(=O)N[C@@H](CCCCNC(=N)N)C(=O)N[C@@H](C)C(=O)N[C@@H](CCCCN)C(=O)N[C@@H](Cc1c[nH]c2ccccc12)C(N)=O, Aib scan of [M]PTH(1-14); also called 627 Aib-6) [[Aib^6,M]PTH(1-14)] ? Its pIC50 was 4.51

Origin of the recorded values: patent US20050026839A1
